Some compounds, each annotated with its measured dose excreted.
Test: The amount of unchanged compound detected in urine collected at 0-18 hr after treatment
Details: rat
Response body: numeric value in %, unit text excluded.

                         structure_notation  observed_measurement
0       CCS(=O)(=O)CCn1c([N+](=O)[O-])cnc1C                  29.4
1  Cc1ncc([N+](=O)[O-])n1CC(O)Cn1c([N+](=O)[O-])cnc1C                  18.2
2        CN1CCN(Cc2ncc([N+](=O)[O-])n2C)CC1                  41.7

Then there is this compound:
Kindly note the recorded dose excreted for Cc1ncc([N+](=O)[O-])n1CCS(C)(=O)=O , which is 25.2

----------
Some compounds, each annotated with its measured Log BR.
System: Rattus norvegicus
Assay: The total 54 h urinary excretion of unchanged compound reported as log (percent X 10) of the administered dose
Conditions: in vivo
I only need the number, thanks.

Guide cases for Log BR, answers given:
>>> print(df.to_string())
                         structure_notation  measure  observed_measurement
0  Cc1ncc([N+](=O)[O-])n1CC(O)Cn1c([N+](=O)[O-])cnc1C   Log BR                 2.358
1       CCS(=O)(=O)CCn1c([N+](=O)[O-])cnc1C   Log BR                 2.822

Then there is this compound:
Kindly note the recorded Log BR for O=[N+]([O-])c1cncn1CCN1CCOCC1 , which is 2.719

----------
Some molecules, each annotated with its measured dose excreted.
Test: The amount of unchanged compound in urine collected at 0-72 h after treatment
Settings: rat
Response body: numeric value in %, unit text excluded.

                                   molecule  observed_measurement
0  O=[N+]([O-])c1cnc(/C=C/c2ccc3c(c2)OCO3)n1CCO                   3.4
1  CCC(CC)C(O)Cn1c([N+](=O)[O-])cnc1C (stereo not drawn)                  51.7
2  Cc1ncc([N+](=O)[O-])n1CCO [METRONIDAZOLE]                  49.2
3        CN1CCN(Cc2ncc([N+](=O)[O-])n2C)CC1                  45.5

Then there is this molecule:
Kindly note the recorded dose excreted for Cn1c([N+](=O)[O-])cnc1C=O , which is 29.9

----------
Some compounds, each annotated with its measured Log BR.
Test system: Rattus norvegicus
Assay: The total 72 hr urinary excretion of unchanged compound reported as log (percent X 10) of the administered dose
Settings: in vivo
I only need the number, thanks.

Guide cases for Log BR, answers given:
>>> print(df.to_string())
                                   compound             system  observed_measurement
0  Cc1ncc([N+](=O)[O-])n1CC(O)Cn1c([N+](=O)[O-])cnc1C  Rattus norvegicus                 2.358
1  CC(C)c1ncc([N+](=O)[O-])n1C [IPRONIDAZOLE]  Rattus norvegicus                  1.96
2  Cc1ncc([N+](=O)[O-])n1CC(=O)N1CCN(C(=O)Cn2c([N+](=O)[O-])cnc2C)CC1  Rattus norvegicus                  2.27

Then there is this compound:
Kindly note the recorded Log BR for Cc1ncc([N+](=O)[O-])n1CCO [METRONIDAZOLE] , which is 2.692

Source of measurements: ChEMBL document CHEMBL1123508
